Assay: Chemical stability assessed as half life of hydrolysis at pH 7.4
Assay type: physicochemical
Settings: buffer
PARAMETER_MEASURED: half-life (min)

{"columns": ["COMPOUND", "DATA_VALUE"],
 "data": [
  ["CC1CCCCN1/[N+]([O-])=N/[O-].[Na+] (stereo not given)", 8.3]
]}

(a) CC1CCCC(C)N1/[N+]([O-])=N/[O-].[Na+] (stereo not given)
(b) [Na+].[O-]/N=[N+](\[O-])N1CCCCC1
(c) CCOC(=O)N1CCN(/[N+]([O-])=N\[O-])CC1.[Na+]
With regard to half-life, arrange the entries in ascending order, please. # the answer lists labels in the order requested
b, c, a
